STUDY_SYSTEM: genotype 3a (VRL-69) NS5bΔ21 polymerase (Hepatitis C virus genotype 3a, UniProt Q81258)
Sequence (Q81258 whole entry, looked up, stated change not applied): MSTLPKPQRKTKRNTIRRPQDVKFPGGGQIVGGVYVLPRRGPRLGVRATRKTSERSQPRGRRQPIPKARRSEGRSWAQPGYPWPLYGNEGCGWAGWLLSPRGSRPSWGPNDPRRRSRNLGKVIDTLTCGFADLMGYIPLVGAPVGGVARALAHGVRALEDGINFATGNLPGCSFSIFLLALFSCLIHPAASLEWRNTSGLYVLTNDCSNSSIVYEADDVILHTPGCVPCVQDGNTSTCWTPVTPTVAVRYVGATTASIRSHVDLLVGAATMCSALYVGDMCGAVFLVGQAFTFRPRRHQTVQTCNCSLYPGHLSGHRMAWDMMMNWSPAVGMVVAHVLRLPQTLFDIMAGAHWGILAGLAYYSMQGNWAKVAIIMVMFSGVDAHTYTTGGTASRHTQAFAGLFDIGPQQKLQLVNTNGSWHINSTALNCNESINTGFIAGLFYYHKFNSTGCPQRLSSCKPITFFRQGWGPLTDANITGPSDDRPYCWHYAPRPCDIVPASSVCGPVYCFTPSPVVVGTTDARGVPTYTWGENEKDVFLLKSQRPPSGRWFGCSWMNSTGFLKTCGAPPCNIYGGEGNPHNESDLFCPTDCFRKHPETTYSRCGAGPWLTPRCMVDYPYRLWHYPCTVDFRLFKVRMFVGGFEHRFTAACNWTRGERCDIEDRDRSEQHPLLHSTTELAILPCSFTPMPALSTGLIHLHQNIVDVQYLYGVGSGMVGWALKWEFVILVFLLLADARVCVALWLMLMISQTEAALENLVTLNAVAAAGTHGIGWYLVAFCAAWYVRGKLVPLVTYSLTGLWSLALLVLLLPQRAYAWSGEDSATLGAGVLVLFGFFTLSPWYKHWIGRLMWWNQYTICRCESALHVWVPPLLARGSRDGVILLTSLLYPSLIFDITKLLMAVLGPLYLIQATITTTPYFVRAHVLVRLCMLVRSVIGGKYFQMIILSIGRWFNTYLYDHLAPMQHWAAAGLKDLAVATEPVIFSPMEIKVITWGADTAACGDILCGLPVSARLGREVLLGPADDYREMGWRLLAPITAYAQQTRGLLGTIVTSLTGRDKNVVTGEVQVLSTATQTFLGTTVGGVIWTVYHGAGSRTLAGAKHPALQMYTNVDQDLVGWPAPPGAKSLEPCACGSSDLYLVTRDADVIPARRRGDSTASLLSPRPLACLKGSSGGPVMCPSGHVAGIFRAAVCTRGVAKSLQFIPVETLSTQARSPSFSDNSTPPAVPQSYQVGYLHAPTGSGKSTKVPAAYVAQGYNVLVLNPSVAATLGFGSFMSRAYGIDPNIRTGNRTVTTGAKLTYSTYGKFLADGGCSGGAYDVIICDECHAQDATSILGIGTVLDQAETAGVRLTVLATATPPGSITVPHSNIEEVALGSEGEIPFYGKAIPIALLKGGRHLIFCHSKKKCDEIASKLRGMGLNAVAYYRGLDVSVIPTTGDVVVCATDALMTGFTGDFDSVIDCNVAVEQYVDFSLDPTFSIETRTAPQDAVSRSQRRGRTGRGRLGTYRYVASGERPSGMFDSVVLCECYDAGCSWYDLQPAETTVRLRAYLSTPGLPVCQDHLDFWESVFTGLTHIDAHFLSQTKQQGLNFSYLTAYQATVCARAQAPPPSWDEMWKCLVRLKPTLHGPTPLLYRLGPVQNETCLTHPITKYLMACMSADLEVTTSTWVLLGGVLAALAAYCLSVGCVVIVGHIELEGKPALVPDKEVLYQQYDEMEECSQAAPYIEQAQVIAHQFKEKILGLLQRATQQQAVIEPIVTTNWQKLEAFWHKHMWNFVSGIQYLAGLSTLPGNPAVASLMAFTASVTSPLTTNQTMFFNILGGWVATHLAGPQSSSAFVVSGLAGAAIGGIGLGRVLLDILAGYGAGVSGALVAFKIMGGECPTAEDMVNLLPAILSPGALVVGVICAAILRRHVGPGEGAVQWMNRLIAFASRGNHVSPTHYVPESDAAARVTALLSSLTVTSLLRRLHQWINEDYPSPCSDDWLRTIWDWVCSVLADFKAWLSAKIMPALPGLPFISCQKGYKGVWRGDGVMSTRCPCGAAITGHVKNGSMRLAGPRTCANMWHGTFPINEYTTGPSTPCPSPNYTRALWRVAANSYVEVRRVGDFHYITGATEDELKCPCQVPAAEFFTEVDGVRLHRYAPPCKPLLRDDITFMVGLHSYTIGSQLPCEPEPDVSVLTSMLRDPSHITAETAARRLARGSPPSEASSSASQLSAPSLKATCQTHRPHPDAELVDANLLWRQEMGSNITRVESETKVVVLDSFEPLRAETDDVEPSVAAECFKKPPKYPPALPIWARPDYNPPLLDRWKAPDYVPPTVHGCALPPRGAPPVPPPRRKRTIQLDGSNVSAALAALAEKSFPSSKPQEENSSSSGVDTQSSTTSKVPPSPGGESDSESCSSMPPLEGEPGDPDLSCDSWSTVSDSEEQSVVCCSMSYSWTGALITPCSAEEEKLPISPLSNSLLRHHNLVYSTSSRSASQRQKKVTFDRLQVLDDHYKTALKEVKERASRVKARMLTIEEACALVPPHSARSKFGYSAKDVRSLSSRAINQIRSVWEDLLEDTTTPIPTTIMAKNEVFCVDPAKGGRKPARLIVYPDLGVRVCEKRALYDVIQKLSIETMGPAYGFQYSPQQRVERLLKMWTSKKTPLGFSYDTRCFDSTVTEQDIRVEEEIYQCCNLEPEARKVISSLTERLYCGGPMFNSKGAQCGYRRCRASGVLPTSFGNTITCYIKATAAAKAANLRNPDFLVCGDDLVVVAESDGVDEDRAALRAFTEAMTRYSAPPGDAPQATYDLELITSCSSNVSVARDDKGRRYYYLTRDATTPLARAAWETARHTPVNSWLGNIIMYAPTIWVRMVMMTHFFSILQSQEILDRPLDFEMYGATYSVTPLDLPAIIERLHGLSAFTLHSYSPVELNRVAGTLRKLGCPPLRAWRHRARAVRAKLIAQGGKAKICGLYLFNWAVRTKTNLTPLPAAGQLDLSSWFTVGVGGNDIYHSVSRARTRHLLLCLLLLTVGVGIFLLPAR
TEST_PROTOCOL: HCV polymerase inhibition assay, genotype 3a
Type: biochemical, HCV genotype 3a (VRL-69)
pIC50: −log10 of the molar value.
Let's look at some compounds and their measured pIC50.
ENDPOINT_LABEL: pIC50

MOLECULE | MEASURED_VALUE
CNC(=O)c1c2cc(C3CC3)c(N(CCCNC(=O)c3ccoc3)S(C)(=O)=O)cc2nn1-c1ccc(Nc2ccc(F)cc2)cc1 | 7.10
CCOC(=O)CCN(c1cc2nn(-c3ccc(Br)cc3)c(C(=O)NC)c2cc1C1CC1)S(C)(=O)=O | 6.33
CNC(=O)c1c2cc(C3CC3)c(N(CCCNC(=O)CCC(=O)OC)S(C)(=O)=O)cc2nn1-c1ccc(Br)cc1 | 7.10
